assayTarget: F protein of hPIV Type 3 (hPIV3 C243) (human Parainfluenza Virus type 3 (hPIV3 …))
method: cell-based or functional assay
*1 amine or outer side, *2 acyl side, *3 side chain or, on linkers, in order; H or OH if unused. Side-chain parts run from the residue outwards. The star is where a group is joined. Succinyl(4-O-cholesteryl) = CC(C)CCC[C@@H](C)[C@H]1CC[C@H]2[C@@H]3CC=C4C[C@@H](OC(=O)CCC(=O)*)CC[C@]4(C)[C@H]3CC[C@]12C; Suc = O=C(CCC(=O)[*:2])[*:1]
Exercise: state measured EC50 (nM), plaque reduction, hPIV3 C243 on LLC-MK2 cells for each of the binders provided.
Entry rule: numbers only, all in nM.

Would you kindly share the measured EC50 (nM), plaque reduction, hPIV3 C243 on LLC-MK2 cells for Ac-SDEFDKKIEEVNKKIEESLKKIEESDKKLGSGSGK([Suc-Succinyl(4-O-cholesteryl)])-NH2 [Compound 20] ?
59.5

Need EC50 (nM), plaque reduction, hPIV3 C243 on LLC-MK2 cells, item Ac-WDEFDKKIEEVNKKIEESLKKIEESDKKLEEVNEAAAKK([Suc-Succinyl(4-O-cholesteryl)])-NH2 [Compound 41]
71.1

Item under review: Ac-SDEFDKKIEEVNKKIEESLKKIEESDKKLEAAAKK([Suc-Succinyl(4-O-cholesteryl)])-NH2 [Compound 16] . Reported EC50 (nM), plaque reduction, hPIV3 C243 on LLC-MK2 cells?
59

Requested read-out: EC50 (nM), plaque reduction, hPIV3 C243 on LLC-MK2 cells. Entry: Ac-YDELVFDASQVNEKINQSLEKIRKSDELLHNVEAAAKK([Suc-Succinyl(4-O-cholesteryl)])-NH2 [Compound 30]
48.2
